# testMethodNotes: parallel artificial membrane permeability assay (PAMPA)
# Format: in vitro ADME
# conditionNotes: ± SD, read-out: Pe, permeability coefficient
measurementLabel: Papp (×10⁻⁶ cm/s)
Number in ×10⁻⁶ cm/s, nothing else.

Look at this compound and give its reported Papp. CC(C(=O)NCc1ccccc1)N1C(=O)CCC1=O (stereo not shown) 9.8
